system: KM12; experiment: NCI tumour cell line growth inhibition, 48 h
Activity calls are given as the source filed them. Cut-off read from the data, not from the text of the source: active = GI50 up to about 1.1 µM and inactive = higher. Residues, ends and D or L forms follow the SMILES beside them. *: point of attachment. Boc = CC(C)(C)OC(=O)*; OBn = c1ccc(CO*)cc1
The entries below are paired with their reported GI50.

These solved cases illustrate the format of a correct answer.
COC(=O)C(Cc1ccccc1)NC(=O)CCCNC(=O)OCc1ccccc1 (centres undefined): > 100 µM (inactive)
CC(NC(=O)CNC(=O)OC(C)(C)C)C(=O)NC(Cc1ccccc1)C(=O)OCc1ccccc1 (stereo not drawn) (Boc-Gly-Ala-Phe-OBn; configuration not given here): > 100 µM (inactive)
CCCCCCCCCCCCCCCCCCNc1ccn(C2OC(CO)C(OP(=O)(O)OCC(O)COP(=O)(O)OCC3OC(n4cc(F)c(NCCCCCCCCCCCCCCCCCC)nc4=O)CC3O)C2O)c(=O)n1 (centres undefined): > 50 µM (inactive)

The record that follows has no GI50 shown yet.
Find the measured GI50 of Cc1ccc(S(=O)(=O)N/N=C2\C3CC4CC(C3)C2C4)cc1 (centres undefined) with KM12 as test system. > 100 µM (inactive)
